Target: UniProt P70536
Sequence (P70536 whole entry): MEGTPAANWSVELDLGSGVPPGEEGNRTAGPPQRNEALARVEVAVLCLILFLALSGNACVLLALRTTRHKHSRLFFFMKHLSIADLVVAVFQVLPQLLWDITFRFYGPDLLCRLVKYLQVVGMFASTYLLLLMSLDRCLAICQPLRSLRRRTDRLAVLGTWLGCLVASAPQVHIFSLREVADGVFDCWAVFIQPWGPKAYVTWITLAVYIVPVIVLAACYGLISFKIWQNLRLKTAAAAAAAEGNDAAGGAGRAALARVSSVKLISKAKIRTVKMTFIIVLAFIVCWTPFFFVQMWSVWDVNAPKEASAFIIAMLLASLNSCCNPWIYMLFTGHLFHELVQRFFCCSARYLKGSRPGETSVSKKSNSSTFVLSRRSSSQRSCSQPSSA
Assay: Inhibition of radioligand [3H]oxytocin binding at the oxytocin (OT) receptor in rat uterine tissue
endpoint-name: IC50 (nM)

For orientation, consider the following solved cases.
compound	system-under-test	IC50 [nM]
CC1(C)[C@@H]2CC[C@@]1(CS(=O)(=O)N1CCC3(CCc4ccccc43)CC1)[C@@H](N1C(=O)C3CC(O)CN3C1=O)C2 (some centres not stated)	UniProt P70536	20
Cn1cncc1CC(=O)N[C@@H](CCC(N)=O)C(=O)N[C@H]1C[C@H]2CC[C@]1(CS(=O)(=O)N1CCC3(CCc4ccccc43)CC1)C2(C)C	UniProt P70536	2.3
Cn1cncc1CC(=O)N[C@H]1C[C@H]2CC[C@]1(CS(=O)(=O)N1CCC3(CCc4ccccc43)CC1)C2(C)C	UniProt P70536	48
COC(=O)CNC(=O)N[C@H]1C[C@H]2CC[C@]1(CS(=O)(=O)N1CCC3(CCc4ccccc43)CC1)C2(C)C	UniProt P70536	160
CC1(C)[C@@H]2CC[C@@]1(CS(=O)(=O)N1CCC3(CCc4ccccc43)CC1)[C@H](NC(=O)Cc1ccccc1)C2	UniProt P70536	1000

[I] CC1(C)[C@@H]2CC[C@@]1(CS(=O)(=O)N1CCC3(CCc4ccccc43)CC1)[C@H](NC(=O)Cc1c[nH]cn1)C2
[II] Cc1[nH]cnc1C(=O)N[C@H]1C[C@H]2CC[C@]1(CS(=O)(=O)N1CCC3(CCc4ccccc43)CC1)C2(C)C
Kindly identify which of I and II has the larger recorded IC50 value. Indicate which entry you chose by stating its label.
I
(I: 830 nM, II: 150 nM)

---

Target: UniProt:P70536
Sequence (P70536 whole entry): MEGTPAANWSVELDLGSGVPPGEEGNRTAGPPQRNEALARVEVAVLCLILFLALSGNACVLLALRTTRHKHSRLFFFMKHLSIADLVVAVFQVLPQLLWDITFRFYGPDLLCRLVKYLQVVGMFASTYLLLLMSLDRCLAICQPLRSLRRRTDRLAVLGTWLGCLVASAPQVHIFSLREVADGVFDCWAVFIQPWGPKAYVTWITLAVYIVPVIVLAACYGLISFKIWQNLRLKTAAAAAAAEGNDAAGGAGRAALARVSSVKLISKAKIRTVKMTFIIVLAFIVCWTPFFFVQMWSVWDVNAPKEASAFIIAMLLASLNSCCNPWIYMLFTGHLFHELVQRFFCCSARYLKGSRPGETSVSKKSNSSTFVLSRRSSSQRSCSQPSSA
pIC50: −log10 of the molar value.
endpoint-name: pIC50

[1] CC1(C)[C@@H]2CC[C@@]1(CS(=O)(=O)N1CCC3(C=Cc4ccccc43)CC1)[C@@](O)(CCNC(=O)CC1CN3CCC1CC3)C2 (some centres not stated)
[2] CC1(C)[C@@H]2CC[C@@]1(CS(=O)(=O)N1CCC3(C=Cc4ccccc43)CC1)[C@@](O)(CN1C(=O)CNC1=O)C2
[3] CC1NC(=O)N([C@H]2C[C@H]3CC[C@]2(CS(=O)(=O)N2CCC4(CCc5ccccc54)CC2)C3(C)C)C1=O (some centres not stated)
Form: Sort by [pIC50] Order [ ascending ] # output: labels, in the requested order
1, 2, 3

[A] CC1(C)[C@@H]2CC[C@@]1(CS(=O)(=O)N1CCC3(C=Cc4ccccc43)CC1)[C@@](O)(CN1C(=O)CCC1=O)C2
[B] CC1(C)[C@@H]2CC[C@@]1(CS(=O)(=O)N1CCC3(CCc4ccccc43)CC1)[C@@H](N1C(=O)C3CCC(=N)N3C1=O)C2 (some centres not stated)
[C] CC1(C)[C@@H]2CC[C@@]1(CS(=O)(=O)N1CCC3(C=Cc4ccccc43)CC1)[C@H](O)C2
Could you please sort these 3 entries by pIC50 from high to low? # output: labels, in the requested order
B, A, C

[I] CC1(C)[C@@H]2CC[C@@]1(CS(=O)(=O)N1CCC3(CCc4ccccc43)CC1)[C@@H](NC(=O)Cc1ccccn1)C2
[II] CC1(C)[C@@H]2CC[C@@]1(CS(=O)(=O)N1CCC3(CCc4ccccc43)CC1)[C@@H](NC(=O)N(CCC(=O)O)CCc1c[nH]cn1)C2
[III] CN(C)[C@H](Cc1c[nH]cn1)C(=O)N[C@H]1C[C@H]2CC[C@]1(CS(=O)(=O)N1CCC3(CCc4ccccc43)CC1)C2(C)C
[IV] CC1CCC(=O)N1[C@H]1C[C@H]2CC[C@]1(CS(=O)(=O)N1CCC3(CCc4ccccc43)CC1)C2(C)C (some centres not stated)
[V] CC1(C)[C@@H]2CC[C@@]1(CS(=O)(=O)N1CCC3(C=Cc4ccccc43)CC1)[C@@](O)(CN)C2
Could you please sort these 5 entries by pIC50 from high to low? # output: labels, in the requested order
II, III, I, IV, V
